# Run Description: Pharmacokinetic study in rats after oral and intravenous administration of PTD (UPLC-MS/MS, plasma)
# Assay type: in vivo
# Reported Conditions: Sprague-Dawley, po; rat plasma, intragastric administration of PTD 27.3 mg/kg
Form field: AUC(0-inf) (one value per entry).
Please reply with the bare figure in ng·h/mL and do not write the unit itself.

Molecule	Measured Attribute	Result Value
OCC1OC(Oc2ccc3c(c2)OCC(O)(CO)Cc2cc(O)c(O)cc2-3)C(O)C(O)C1O [PTD, protosappanin B-3-O-β-D-glucoside]	AUC(0-inf)	405

**Query** Look up AUC(0-inf) for this molecule: OCC1(O)COc2cc(O)ccc2-c2cc(O)c(O)cc2C1 (centres unmarked) [PTB, protosappanin B, reference compound]
**Result** 204

Entry source: paper PMC9506044
